All values here come from ChEMBL document CHEMBL5303573.

- PARTICULARS: bacteroides fragilis, 12 h, 2 µM
- Description: The drug is tested on Bacteroides fragilis strain: NCTC 9343 for biotransformation. The drug concentrations were measured before and after a 12-h incubation by liquid-chromatography-coupled mass spectrometry (LC–MS)
PROPERTY NAME: Bacterial Biotransformation

Examples with their reported Bacterial Biotransformation follow.
COMPOUND: CN1CCC(OC(c2ccccc2)c2ccccc2)CC1
Bacterial Biotransformation: Compound NOT metabolized
//
COMPOUND: CC(=O)O[C@]1(C(C)=O)CC[C@H]2[C@@H]3C=C(Cl)C4=CC(=O)[C@@H]5C[C@@H]5[C@]4(C)[C@H]3CC[C@@]21C [CYPROTERONE ACETATE]
Bacterial Biotransformation: Compound metabolized
//
COMPOUND: CC(C)(C)NCC(O)c1cc(Cl)c(N)c(Cl)c1 (centres undefined) [CLENBUTEROL]
Bacterial Biotransformation: Compound NOT metabolized
//
COMPOUND: OCCN1CCN(CCCN2c3ccccc3Sc3ccc(C(F)(F)F)cc32)CC1 [FLUPHENAZINE]
Bacterial Biotransformation: Compound metabolized
//
COMPOUND: CC(N)C12CC3CC(CC(C3)C1)C2 (centres undefined) [RIMANTADINE]
Bacterial Biotransformation: Compound NOT metabolized
//
COMPOUND: CC(C)c1c(CN(C)C(C)Cc2ccccc2)n(C)n(-c2ccccc2)c1=O (centres undefined) [FAMPROFAZONE]
Bacterial Biotransformation: Compound metabolized

Just so you know, measured Bacterial Biotransformation for COC(=O)C1=C(C)NC(C)=C(C(=O)OC(C)C)C1c1cccc2nonc12 (centres undefined) [ISRADIPINE] came out at Compound NOT metabolized

Just so you know, measured Bacterial Biotransformation for CC(C)(C#N)c1cc(Cn2cncn2)cc(C(C)(C)C#N)c1 [ANASTROZOLE] came out at Compound metabolized

Just so you know, measured Bacterial Biotransformation for CCCCC(=O)N(Cc1ccc(-c2ccccc2-c2nnn[nH]2)cc1)[C@H](C(=O)O)C(C)C came out at Compound NOT metabolized
